# experimental.protocol: Selectivity index, ratio of EC50 for toxicity in human BEAS2B cells to MIC50 for antifungal activity against ITC and FLC-resistant Candida albicans ATCC MYA-90819
# Assay type: cell-based
# condition.set: BEAS-2B cells, read-out: Selectivity Index
assay.endpoint: selectivity ratio
No unit in the answer, only the number.

| compound | assay.endpoint | reported |
| --- | --- | --- |
| CCCCCCC(O)(Cn1cncn1)c1ccc(Cl)cc1Cl (stereo not drawn) | selectivity ratio | 14 |

So for CCCCCCC(O)(Cn1cncn1)c1ccccc1Cl (stereo not drawn) , the logged selectivity ratio turned out to be 16

So for CCCCCCC(O)(Cn1cncn1)c1ccc(F)cc1 (stereo not drawn) , the logged selectivity ratio turned out to be 32

So for CCCCCCCCC(O)(Cn1cncn1)c1ccc(F)cc1F (stereo not drawn) , the logged selectivity ratio turned out to be 7

So for CCCCCCC(O)(Cn1cncn1)c1ccc(F)cc1F (stereo not drawn) , the logged selectivity ratio turned out to be 16

So for CCCCCCC(O)(Cn1cncn1)c1ccc(Cl)cc1 (stereo not drawn) , the logged selectivity ratio turned out to be 8

So for CCCCC(O)(Cn1cncn1)c1ccc(F)cc1F (stereo not drawn) , the logged selectivity ratio turned out to be 2

So for CCCCCC(O)(Cn1cncn1)c1ccccc1F (stereo not drawn) , the logged selectivity ratio turned out to be 65

So for CCCCCC(O)(Cn1cncn1)c1ccc(F)cc1 (stereo not drawn) , the logged selectivity ratio turned out to be 34

So for CCCCCCC(O)(Cn1cncn1)c1ccccc1F (stereo not drawn) , the logged selectivity ratio turned out to be 130

So for CCCCCC(O)(Cn1cncn1)c1ccc(Cl)cc1Cl (stereo not drawn) , the logged selectivity ratio turned out to be 16

So for CCCCCC(O)(Cn1cncn1)c1ccc(F)cc1F (stereo not drawn) , the logged selectivity ratio turned out to be 8

So for CCCCCC(O)(Cn1cncn1)c1ccc(Cl)cc1 (stereo not drawn) , the logged selectivity ratio turned out to be 16
